Biological target: hOT7T175 (Homo sapiens, UniProt Q969F8, L364H)
Construct: expressed in transfected cells
Sequence (Q969F8 whole entry L364H): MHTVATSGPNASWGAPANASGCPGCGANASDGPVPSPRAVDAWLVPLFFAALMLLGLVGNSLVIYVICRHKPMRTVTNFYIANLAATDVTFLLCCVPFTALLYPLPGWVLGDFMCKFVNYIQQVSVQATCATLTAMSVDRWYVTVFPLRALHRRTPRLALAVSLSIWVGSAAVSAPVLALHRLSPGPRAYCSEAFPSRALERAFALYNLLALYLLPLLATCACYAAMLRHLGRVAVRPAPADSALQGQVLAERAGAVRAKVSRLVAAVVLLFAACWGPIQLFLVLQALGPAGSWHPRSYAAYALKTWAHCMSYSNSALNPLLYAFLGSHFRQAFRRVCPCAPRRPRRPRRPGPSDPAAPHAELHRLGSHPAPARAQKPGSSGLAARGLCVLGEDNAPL
Format: cell-based
Conditions: hOT7T175/CHO, FLIPR, evaluation for 40 seconds after initiation of the reaction
Non-standard residues stand in square brackets, D forms with d. Arg(Me) = CNC(=N)NCCC[C@H](N)C(=O)O; azaGly = NNC(=O)O
# Lookup of reported Specific Act. (EC50/MS10 EC50) keyed by entry
Kindly provide the number alone.

- SUBSTANCE: "Ac-D-Trp-Asn-Thr-Phe-AzaGly-Leu-Arg(Me)-Trp-NH2 (Ac-[dW]NTF[azaGly]L[Arg(Me)]W-NH2; SMILES CNC(=N)NCCC[C@H](NC(=O)[C@H](CC(C)C)NC(=O)NNC(=O)[C@H](Cc1ccccc1)NC(=O)[C@@H](NC(=O)[C@H](CC(N)=O)NC(=O)[C@@H](Cc1c[nH]c2ccccc12)NC(C)=O)[C@@H](C)O)C(=O)N[C@@H](Cc1c[nH]c2ccccc12)C(N)=O) [Compound No. 666]"
  REPORTED_ENDPOINT: "Specific Act. (EC50/MS10 EC50)"
  MEASURED: 1.1

Exam item: Annotate the substance 3-Phenylpropionyl-Asn-Pro-Phe-AzaGly-Leu-Arg(Me)-Trp-NH2 [Compound No. 524] with its measured Specific Act. (EC50/MS10 EC50).
Marked response: 1.1

Exam item: Specify measured Specific Act. (EC50/MS10 EC50) for Ac-D-Trp-D-Trp-Asn-Thr-Phe-AzaGly-Leu-Arg(Me)-Trp-NH2 (Ac-[dW][dW]NTF[azaGly]L[Arg(Me)]W-NH2; SMILES CNC(=N)NCCC[C@H](NC(=O)[C@H](CC(C)C)NC(=O)NNC(=O)[C@H](Cc1ccccc1)NC(=O)[C@@H](NC(=O)[C@H](CC(N)=O)NC(=O)[C@@H](Cc1c[nH]c2ccccc12)NC(=O)[C@@H](Cc1c[nH]c2ccccc12)NC(C)=O)[C@@H](C)O)C(=O)N[C@@H](Cc1c[nH]c2ccccc12)C(N)=O) [Compound No. 663] .
Marked response: 0.8
